test system: SF-295; assay: NCI tumour cell line growth inhibition, 48 h
Calls of active or inactive are those of the source. Rule as the data show it: active = GI50 up to about 1.1 µM and inactive = higher.
observable: GI50

Name the recorded GI50 of COc1cc(C2SCC(=O)N2c2ccc(Cl)cc2)cc(OC)c1OC (stereo not drawn) , assay system SF-295.
4.95 µM (inactive)

Output reported GI50 of the molecule CC(C)OP(=O)(OC(C)C)c1ncn(-c2ccc([N+](=O)[O-])cc2)n1 on SF-295.
> 100 µM (inactive)

Under SF-295: report GI50 of N#C[BH2-][n+]1cn(C2CC(O)C(COP(=O)(O)OC3CC(n4cnc5c(=O)[nH]c(N)nc54)OC3CO)O2)c2nc(N)[nH]c(=O)c21 (stereo not drawn) .
> 100 µM (inactive)

Quote GI50 with test system SF-295 for O=C1N[C@@H]2O[C@H](CNC(=O)c3cc(Br)c[nH]3)C[C@]2(O)N1.O=C1N[C@H]2O[C@H](CNC(=O)c3cc(Br)c[nH]3)C[C@@]2(O)N1
> 100 µM (inactive)

Name the value of GI50 reported for c1ccc2c(c1)cc1ccc3cccc4ccc2c1c34 when tested on SF-295.
> 100 µM (inactive)

Jot down GI50 (SF-295) of CCOC(=O)C1=C(c2ccccc2)N(C(C)=O)Cc2ccccc21 .
13.9 µM (inactive)

Param request: GI50 | system SF-295 | item CC(C)(C)OC(=O)N/N=C(/N)c1ccccc1
> 100 µM (inactive)

Fill in GI50 for Oc1c(CN2CCCC2)ccc2cccnc12 tested with SF-295.
13 µM (inactive)
